Where do these numbers come from? They come from paper PMC11678425.

Target: hSERT F556A (Homo sapiens, UniProt P31645, F556A)
Construct: forward and reverse primers were used to amplify a full-length hSERT; expressed in transfected cells; host or cells: HeLa cells, transient, pcDNA3.1
Sequence (P31645 whole entry F556A): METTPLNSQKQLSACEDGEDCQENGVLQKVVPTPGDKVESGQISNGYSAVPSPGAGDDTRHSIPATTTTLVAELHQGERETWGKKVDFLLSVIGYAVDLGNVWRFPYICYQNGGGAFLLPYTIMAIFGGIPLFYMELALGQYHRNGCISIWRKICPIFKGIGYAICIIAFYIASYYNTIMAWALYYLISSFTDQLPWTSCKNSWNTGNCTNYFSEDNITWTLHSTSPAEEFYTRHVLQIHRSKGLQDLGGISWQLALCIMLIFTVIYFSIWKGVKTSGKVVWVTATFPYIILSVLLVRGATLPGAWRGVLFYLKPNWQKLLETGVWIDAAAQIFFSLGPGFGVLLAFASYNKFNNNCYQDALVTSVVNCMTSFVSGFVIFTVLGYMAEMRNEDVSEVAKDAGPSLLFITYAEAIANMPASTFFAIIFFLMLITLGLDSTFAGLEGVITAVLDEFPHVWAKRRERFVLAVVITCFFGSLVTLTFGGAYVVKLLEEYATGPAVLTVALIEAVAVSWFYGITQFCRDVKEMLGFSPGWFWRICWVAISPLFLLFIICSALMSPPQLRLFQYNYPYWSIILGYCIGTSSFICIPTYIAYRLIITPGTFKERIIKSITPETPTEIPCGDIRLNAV
Assay: APP^+ uptake, hSERT F556A
Type: cell-based
Settings: S2 site mutant, read-out: SYR IC50 for Transport
experimental_readout: pIC50
pIC50 is a log-scale quantity: -log10 of the concentration expressed in molar.

Give recorded pIC50 with hSERT F556A (Homo sapiens, UniProt P31645, F556A) for the following molecule: COc1cc([C@@H]2OC[C@@H]3[C@H]2CO[C@H]3c2cc(OC)c(O)c(OC)c2)cc(OC)c1O [SYR, (-)-syringaresinol] 5.13
